These data points were gathered from patent US10301295B2.

Tested on: Alopecurus myosuroides (ALOMY)
Assay: Glasshouse assay for herbicidal activity, pre-/post-emergence (percentage phytotoxicity)
Format: in vivo
Settings: Alopecurus myosuroides, 360 h; Rate 250 g/ha; post-emergence; visual assessment 15 DAA; 100%=total damage, 0%=no damage; read-out: Post-emergence herbicidal activity (percentage phytotoxicity), ALOMY POST
measured-metric: pest or weed control at 250 g/ha (%)
Give a bare numeral; the unit % is implied.

Below: 5 compounds and their reported pest or weed control at 250 g/ha.
                                   compound                   measured_metric  units_text  value_measured
0  CC#Cc1cc(C)c(C2C(=O)CC(CCNC(=O)N(C)c3ccccn3)C2=O)c(C)c1.Cl (stereo not shown) [Compound A22]  pest or weed control at 250 g/ha           %              80
1  Cc1cc(C)c(C2C(=O)CC(CCNC(=O)N(C)c3ccccn3)C2=O)c(C)c1 (stereo not shown) [Compound A11]  pest or weed control at 250 g/ha           %              90
2  Cc1cc(C)c(C2C(=O)CC(CCNC(=O)NC(=O)c3ccccc3F)C2=O)c(C)c1 (stereo not shown) [Compound A54]  pest or weed control at 250 g/ha           %             100
3  Cc1cc(C)c(C2C(=O)CC(CCNC(=O)Nc3cc(C(C)(C)C)on3)C2=O)c(C)c1 (stereo not shown) [Compound A15]  pest or weed control at 250 g/ha           %              60
4  Cc1cc(C)c(C2C(=O)CC(CCNC(=O)Nc3ncccn3)C2=O)c(C)c1 (stereo not shown) [Compound A30]  pest or weed control at 250 g/ha           %              90

Ask | Give recorded pest or weed control at 250 g/ha. Cc1cc(C)c(C2C(=O)C[C@@H](CCNC(=O)C3=NOC(C)(C)C3)C2=O)c(C)c1 (stereo partly shown) [Compound A102]
Reply | 100

Ask | Determine from records and report pest or weed control at 250 g/ha for Cc1cc(C)c(C2C(=O)CC(CCNC(=O)Nc3ccccc3)C2=O)c(C)c1 (stereo not shown) [Compound A9]
Reply | 30

Ask | Give the reported pest or weed control at 250 g/ha for this compound. Cc1cc(C)c(C2C(=O)CC(CCNS(=O)(=O)c3ccc(OC(F)(F)F)cc3)C2=O)c(C)c1 (stereo not shown) [Compound A85]
Reply | 60

Ask | Supply measured pest or weed control at 250 g/ha of Cc1cc(C)c(C2C(=O)CC(CCNC(=O)N3CCOCC3)C2=O)c(C)c1 (stereo not shown) [Compound A47] in your reply.
Reply | 60

Ask | Tell me pest or weed control at 250 g/ha reported for Cc1cc(-c2ncc(Br)cn2)cc(C)c1C1C(=O)CC(CCNC(=O)C2=NOC(C)(C)C2)C1=O (stereo not shown) [Compound A116]
Reply | 100
